As shown below, each of these molecules has a reported IC50 value.
Target: Androgen receptor (Homo sapiens, UniProt P10275)
Sequence (P10275 whole entry): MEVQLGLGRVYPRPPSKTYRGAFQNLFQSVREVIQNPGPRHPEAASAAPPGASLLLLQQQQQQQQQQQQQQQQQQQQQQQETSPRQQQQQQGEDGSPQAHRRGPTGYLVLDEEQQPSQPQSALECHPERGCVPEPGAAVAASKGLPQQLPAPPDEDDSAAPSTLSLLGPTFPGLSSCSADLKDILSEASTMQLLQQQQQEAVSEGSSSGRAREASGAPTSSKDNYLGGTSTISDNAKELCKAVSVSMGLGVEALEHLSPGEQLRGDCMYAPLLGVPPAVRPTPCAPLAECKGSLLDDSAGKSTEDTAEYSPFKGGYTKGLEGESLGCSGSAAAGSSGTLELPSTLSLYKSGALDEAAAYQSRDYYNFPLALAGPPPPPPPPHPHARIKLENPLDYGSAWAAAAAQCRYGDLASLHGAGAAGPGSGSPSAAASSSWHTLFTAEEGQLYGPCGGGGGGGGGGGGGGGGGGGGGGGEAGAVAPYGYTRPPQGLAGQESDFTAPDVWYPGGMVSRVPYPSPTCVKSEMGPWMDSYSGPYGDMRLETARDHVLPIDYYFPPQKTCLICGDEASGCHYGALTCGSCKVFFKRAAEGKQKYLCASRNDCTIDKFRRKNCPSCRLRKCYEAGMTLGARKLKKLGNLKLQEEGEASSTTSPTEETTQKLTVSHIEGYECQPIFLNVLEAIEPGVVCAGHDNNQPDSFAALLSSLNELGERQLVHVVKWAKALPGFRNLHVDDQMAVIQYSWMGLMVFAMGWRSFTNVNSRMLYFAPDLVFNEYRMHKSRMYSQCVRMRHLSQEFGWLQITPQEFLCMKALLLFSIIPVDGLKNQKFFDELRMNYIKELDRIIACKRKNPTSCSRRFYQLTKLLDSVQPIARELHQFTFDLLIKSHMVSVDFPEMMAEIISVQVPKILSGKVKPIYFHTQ
Assay: Inhibition of androgen receptor in human LNCaP cells assessed as inhibition of AR transcription activity by dual-luciferase reporter assays
Express it in µM; write the number only.

Some solved cases for reference:
Cc1c(O)c(O)c(C=O)c(COCc2cccc(F)c2)c1-c1ccccc1    4.05
Cc1c(O)c(O)c(C=O)c(COCc2ccccc2)c1-c1ccc(Br)c(F)c1    2.19

# context switch: different molecule, same IC50
Please give the documented IC50 of COC(=O)c1ccc(-c2c(C)c(O)c(O)c(C=O)c2COCc2ccccc2)cc1
4.23
